Here the recorded pEC50 is given for each entry.
- Tested on: CEM/VLB1000 cell line
- experimental-details: Cytotoxicity potentiation: enhancement of vinblastine cytotoxicity in MDR cell line (alamar blue)
- Format: cell-based, human
- condition-description: Homo sapiens, midpoint of minimum and maximum cytotoxicity induced by 3-5 μg/mL vinblastine and compound, 48 hours incubation, alamar blue 24 hours, read-out: Cytotocicity Potentiation (EC50)
- Method: Multidrug-resistant cell lines are easily obtainable for in vitro determination of drug sensitization by compounds of the present invention. In vitro potentiation of antineoplastic cytotoxicity by the imidazole derivatives of the present invention was measured in both CEM/VLB1000 and SK/VLB1000 cell lines. The multidrug resistant cell lines were obtained from Dr. Victor Ling, Ontario Cancer Institute, Toronto, Canada. […]
Note on units: pEC50 is unitless, being -log10 of a concentration expressed in mol/L.

>>> df
                    structure_smiles_string  result_type  result
0  CCOC/C=C/c1ccc(-c2nc(-c3ccc(N4CCCC4)cc3)c(-c3ccc(N4CCCC4)cc3)[nH]2)cc1        pEC50    6.62
1  CCOC/C=C/c1ccc(-c2nc(-c3ccc(N(CC)CC)cc3)c(-c3ccc(N(CC)CC)cc3)[nH]2)cc1        pEC50    6.59

Okay, next one:
What value of measured pEC50 is listed for CCN(CC)Cc1ccc(-c2nc(-c3ccc(/C=C/C(=O)OC)cc3)[nH]c2-c2ccc(CN(CC)CC)cc2)cc1 ? 5.47
